EXPERIMENTAL_SYSTEM: recombinant human His-ATG7 enzyme (Homo sapiens (Human), UniProt O95352)
Sequence (O95352 whole entry): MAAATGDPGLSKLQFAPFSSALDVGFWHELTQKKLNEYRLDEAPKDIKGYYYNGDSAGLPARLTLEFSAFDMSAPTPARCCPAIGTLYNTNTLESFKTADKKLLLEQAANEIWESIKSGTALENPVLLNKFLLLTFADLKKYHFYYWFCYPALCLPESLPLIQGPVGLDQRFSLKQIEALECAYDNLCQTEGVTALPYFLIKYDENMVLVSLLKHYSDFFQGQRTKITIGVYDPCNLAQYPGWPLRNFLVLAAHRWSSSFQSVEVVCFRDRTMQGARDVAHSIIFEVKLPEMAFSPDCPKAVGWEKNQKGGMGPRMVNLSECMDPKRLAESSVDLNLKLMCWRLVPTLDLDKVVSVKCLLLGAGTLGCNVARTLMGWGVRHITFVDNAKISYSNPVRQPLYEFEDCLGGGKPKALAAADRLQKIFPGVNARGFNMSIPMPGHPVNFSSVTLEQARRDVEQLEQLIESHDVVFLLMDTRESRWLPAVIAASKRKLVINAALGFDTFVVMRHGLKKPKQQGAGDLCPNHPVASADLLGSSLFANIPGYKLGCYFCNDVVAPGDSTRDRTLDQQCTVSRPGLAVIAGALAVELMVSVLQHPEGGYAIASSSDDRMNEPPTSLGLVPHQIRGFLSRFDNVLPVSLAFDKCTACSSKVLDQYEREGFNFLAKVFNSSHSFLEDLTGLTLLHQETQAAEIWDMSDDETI
PROCEDURE_TEXT: ATG7 Enzyme Assay (HTRF/FRET, ATG3-GST and Flag-Gabarap)
pIC50: −log10 of the molar value.
Documented pIC50 across a set of compounds

{"COMPOUND": "C#CCSc1nn([C@@H]2O[C@H](COS(N)(=O)=O)[C@@H](O)[C@H]2O)c2ncnc(N)c12 [Compound I-43]", "EXPERIMENTAL_SYSTEM": "recombinant human His-ATG7 enzyme (Homo sapiens (Human), UniProt O95352)", "MEASURED_VALUE": "7.30 to 7.70"}

Exercise: Which measured pIC50 value corresponds to Nc1ncnc2c1c(Sc1c[nH]c3ccccc13)nn2[C@H]1C[C@H](O)[C@@H](COS(N)(=O)=O)O1 [Compound I-170] ?
Key: 6.30 to 7.00

Exercise: Which pIC50 is reported for this compound? Nc1ncnc2c1c(C(F)F)nn2[C@@H]1O[C@H](COS(N)(=O)=O)[C@@H](O)[C@H]1O [Compound I-25]
Key: 7.00 to 7.30

Exercise: pIC50 lookup needed for CCOc1nn([C@@H]2O[C@H](COS(N)(=O)=O)[C@@H](O)[C@H]2O)c2ncnc(N)c12 [Compound I-5] , thanks.
Key: 6.30 to 7.00

Exercise: Data request, read-out pIC50, for Nc1ncnc2c1c(SC1CCC1)nn2[C@H]1C[C@H](O)[C@@H](COS(N)(=O)=O)O1 [Compound I-164]
Key: 7.00 to 7.30

Exercise: Form field: reported pIC50 of CSc1nn([C@@H]2O[C@@H](COS(N)(=O)=O)[C@@H](O)[C@@H]2F)c2ncnc(N)c12 [Compound I-96]
Key: 6.30 to 7.00

Exercise: Report pIC50 for Cc1ccc(Sc2nn([C@@H]3O[C@H](COS(N)(=O)=O)[C@@H](O)[C@H]3O)c3ncnc(N)c23)cc1 [Compound I-89] please.
Key: > 7.70

Exercise: Which value of pIC50 has been reported for COC(=O)c1nn([C@@H]2O[C@H](COS(N)(=O)=O)C(O)C2O)c2ncnc(N)c12 (stereo in doubt) [Compound I-20] in the records?
Key: 6.30 to 7.00

Exercise: Given the compound Nc1ncnc2c1c(Sc1ccccc1F)nn2[C@@H]1O[C@H](COS(N)(=O)=O)[C@@H](O)[C@@H]1F [Compound I-109] , what is its reported pIC50?
Key: 7.30 to 7.70

Exercise: Reported pIC50 for Nc1ncnc2c1c(Sc1ccc3ccccc3c1)nn2[C@H]1C[C@H](O)[C@@H](COS(N)(=O)=O)O1 [Compound I-166] : what is it?
Key: 6.30 to 7.00

Exercise: // pIC50 lookup, key: Cc1ccc(Sc2nn([C@H]3C[C@H](O)[C@@H](COS(N)(=O)=O)O3)c3ncnc(N)c23)c(F)c1 [Compound I-161]
Key: 7.00 to 7.30

Exercise: # pIC50 lookup, item Nc1ncnc2c1c(SCc1ccc(Cl)o1)nn2[C@@H]1O[C@H](COS(N)(=O)=O)[C@@H](O)[C@H]1O [Compound I-73]
Key: 7.30 to 7.70

Exercise: Sample Nc1ncnc2c1c(SCc1ccccn1)nn2[C@@H]1O[C@H](COS(N)(=O)=O)[C@@H](O)[C@H]1O [Compound I-59] — what was its pIC50?
Key: 7.30 to 7.70

Exercise: Which pIC50 is reported for this compound? Nc1ncnc2c1c(Sc1ccc(Cl)cn1)nn2[C@H]1C[C@H](O)[C@H](COS(N)(=O)=O)O1 [Compound I-222]
Key: 7.00 to 7.30

Exercise: // lookup pIC50 for Nc1ncnc2c1c(Sc1ccc3c(c1)OCO3)nn2[C@H]1C[C@H](O)[C@@H](COS(N)(=O)=O)O1 [Compound I-175]
Key: 7.00 to 7.30

Exercise: So what's the measured pIC50 for this one? Nc1ncnc2c1c(SCc1cccc(F)c1)nn2[C@@H]1O[C@H](COS(N)(=O)=O)[C@@H](O)[C@H]1O [Compound I-44]
Key: 7.30 to 7.70

Exercise: Which pIC50 value belongs to Nc1ncnc2c1c(Oc1ccccc1)nn2[C@@H]1O[C@H](COS(N)(=O)=O)[C@@H](O)[C@H]1O [Compound I-37] ?
Key: < 6.30

Exercise: Consider the compound Nc1ncnc2c1c(Sc1ccc(OC(F)(F)F)cc1)nn2[C@H]1C[C@H](O)[C@@H](COS(N)(=O)=O)O1 [Compound I-197] and give its measured pIC50.
Key: 6.30 to 7.00

Exercise: Entry CSc1nn([C@@H]2O[C@H](COS(N)(=O)=O)[C@@H](O)[C@@H]2F)c2ncnc(N)c12 [Compound I-115] has what pIC50?
Key: 7.30 to 7.70

Exercise: Give the measured pIC50 of Nc1ncnc2c1c(C1CC1)nn2[C@@H]1O[C@H](COS(N)(=O)=O)[C@@H](O)[C@H]1O [Compound I-26] .
Key: 7.00 to 7.30
